- Study system: T1, human MSLN-R3-his protein (human, UniProt Q13421 487-598)
- T1 construct: Made in HEK293E cells, purified on nickel column; also called hMSLN-R3-his; human MSLN-R3 protein; not shown: His tag
- T1 sequence (Q13421 495-606): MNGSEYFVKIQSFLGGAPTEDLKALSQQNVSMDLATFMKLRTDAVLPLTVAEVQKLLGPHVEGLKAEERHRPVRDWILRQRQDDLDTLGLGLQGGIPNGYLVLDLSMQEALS
- Test summary: ELISA, coated antigen, antibody 0.001 nM
Endpoint name: OD450

Binder	Endpoint name	Value observed
S009-F4-127.10 chimeric antibody (antibody, human IgG1, kappa, V domains shown, Human-murine chimeric antibody, human IgG1/kappa constant regions) VH: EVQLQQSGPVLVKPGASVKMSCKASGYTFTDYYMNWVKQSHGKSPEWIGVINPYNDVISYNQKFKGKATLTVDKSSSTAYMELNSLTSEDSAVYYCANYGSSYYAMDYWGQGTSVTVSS VL: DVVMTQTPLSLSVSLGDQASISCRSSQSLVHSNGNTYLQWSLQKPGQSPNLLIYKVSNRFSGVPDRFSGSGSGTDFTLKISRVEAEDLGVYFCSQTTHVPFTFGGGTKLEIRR	OD450	0.09

All figures here come from patent US20250250357A1.
